Data provenance: the supplement of paper PMC9112550

test system: Escherichia coli TOP10; assay: shrunken log2 fold change of peptide-encoding DNA abundance (4.5 h post-induction vs induction); higher = less antimicrobial activity (less host growth inhibition); settings: time post-induction: 4.5 h; library: site-saturation at positions 5, 18, 19, 20
Value Kind: shrunken log2 fold change
Just the number.

RRIRCRPPRLPRPRPRPFWMPRP: -0.176
RRIRMRPPRLPRPRPRPQKRPRP: 0.489
RRIRLRPPRLPRPRPRPGPEPRP: 0.685
RRIRWRPPRLPRPRPRPNLWPRP: 0.587
RRIRTRPPRLPRPRPRPVQYPRP: -0.246
RRIRARPPRLPRPRPRPLDSPRP: 0.166

Reported shrunken log2 fold change of RRIRGRPPRLPRPRPRPMYHPRP : -0.242

Just so you know, measured shrunken log2 fold change for RRIRMRPPRLPRPRPRPHFKPRP came out at -0.0841

Sample RRIRERPPRLPRPRPRPQIRPRP ; shrunken log2 fold change observed: 0.0242

# shrunken log2 fold change of RRIRHRPPRLPRPRPRPGDNPRP = -0.0143

Lab book: shrunken log2 fold change of RRIRSRPPRLPRPRPRPECAPRP noted as 0.784

###

system: Escherichia coli TOP10; experiment: shrunken log2 fold change of peptide-encoding DNA abundance (4.5 h post-induction vs induction); higher = less antimicrobial activity (less host growth inhibition); settings: time post-induction: 4.5 h; library: site-saturation at positions 5, 18, 19, 20
The sequences listed here are annotated with their shrunken log2 fold change.
Respond with the number and no other words.

RRIRKRPPRLPRPRPRPLMSPRP: 0.0201
RRIRIRPPRLPRPRPRPCDDPRP: -0.395
RRIRVRPPRLPRPRPRPKWIPRP: -0.114
RRIRVRPPRLPRPRPRPATIPRP: -0.101
RRIRTRPPRLPRPRPRPTWAPRP: -0.117
RRIRSRPPRLPRPRPRPVSHPRP: -0.188

We now examine a further sequence.
Sample RRIRCRPPRLPRPRPRPFYHPRP , system: Escherichia coli TOP10. Its shrunken log2 fold change is -0.668

###

Each item that follows carries a reported shrunken log2 fold change.
system: Escherichia coli TOP10; assay: shrunken log2 fold change of peptide-encoding DNA abundance (4.5 h post-induction vs induction); higher = less antimicrobial activity (less host growth inhibition); conditions: time post-induction: 4.5 h; library: site-saturation at positions 5, 18, 19, 20;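 note: peptides expressed intracellularly from a pBAD plasmid library in pooled LB shake-flask culture, induced with 0.3% L-arabinose, DNA abundance read by NGS, three biological replicates, DESeq2 with apeglm shrinkage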

RRIRSRPPRLPRPRPRPHPNPRP: -0.239
RRIRKRPPRLPRPRPRPGQVPRP: 0.00902
RRIRKRPPRLPRPRPRPQLMPRP: 1.59

The reported shrunken log2 fold change value, Escherichia coli TOP10, for RRIRRRPPRLPRPRPRPLYRPRP reads -0.121

Escherichia coli TOP10 data for RRIRDRPPRLPRPRPRPMVHPRP ; its shrunken log2 fold change: 0.234

Sample RRIRLRPPRLPRPRPRPTWIPRP , system: Escherichia coli TOP10. Its shrunken log2 fold change is 0.0209

// assay Escherichia coli TOP10, entry RRIRYRPPRLPRPRPRPFTNPRP , shrunken log2 fold change value = 0.0209

The observed shrunken log2 fold change for RRIRDRPPRLPRPRPRPIYNPRP when tested with Escherichia coli TOP10 stands at -0.771

Record RRIRERPPRLPRPRPRPGAWPRP has Escherichia coli TOP10 shrunken log2 fold change equal to -0.0396
